All values here come from paper PMC10726354.

Record form. Attribute: SUVmax PC3 PD-L1 overexpressing tumor. Fill in for each entry.
System: PC3 PD-L1-overexpressing tumor
Assay Overview: Small-animal PET, uptake in PD-L1-overexpressing tumor
Condition Description: 1.5 (1–2) hours p.i., tracer only
Please respond with just the number, no unit label.

Which SUVmax PC3 PD-L1 overexpressing tumor is listed for Cc1c(COc2cc(OCc3cncc(S(C)(=O)=O)c3)c(CN[C@@H](CS(=O)(=O)O)C(=O)NCCP(=O)(O)O)cc2Cl)cccc1-c1cccc(OCc2cn(CCCN3CCN(C(=O)[C@H](CS(=O)(=O)O)NC(=O)CC[C@H](C(=O)O)N4CCN(CC(=O)O)CCN(CC(=O)O)CC4)CC3)nn2)c1C.[64Cu+2] [[^64Cu]Cu-5] ?
3.25

Which SUVmax PC3 PD-L1 overexpressing tumor is listed for Cc1c(COc2cc(OCc3cncc(S(C)(=O)=O)c3)c(CN[C@@H](CS(=O)(=O)O)C(=O)NCCP(=O)(O)O)cc2Cl)cccc1-c1cccc(OCc2cn(CCCN3CCN(C(=O)CC[C@H](C(=O)O)N4CCN(CC(=O)O)CCN(CC(=O)O)CC4)CC3)nn2)c1C.[64Cu+2] [[^64Cu]Cu-4] ?
1.97

Which SUVmax PC3 PD-L1 overexpressing tumor is listed for Cc1c(COc2cc(OCc3cncc(S(C)(=O)=O)c3)c(CN[C@@H](CS(=O)(=O)O)C(=O)NCCP(=O)(O)O)cc2Cl)cccc1-c1cccc(OCc2cn(CCCN3CCN(C(=O)[C@H](CP(=O)(O)O)NC(=O)CC[C@H](C(=O)O)N4CCN(CC(=O)O)CCN(CC(=O)O)CC4)CC3)nn2)c1C.[64Cu+2] [[^64Cu]Cu-6] ?
1.83

Which SUVmax PC3 PD-L1 overexpressing tumor is listed for Cc1c(COc2cc(OCc3cncc(S(C)(=O)=O)c3)c(CN[C@@H](CS(=O)(=O)O)C(=O)NCCS(=O)(=O)O)cc2Cl)cccc1-c1cccc(OCc2cn(CCCN3CCN(C(=O)[C@H](CS(=O)(=O)O)NC(=O)CC[C@H](C(=O)O)N4CCN(CC(=O)O)CCN(CC(=O)O)CC4)CC3)nn2)c1C.[64Cu+2] [[^64Cu]Cu-3] ?
3.5

====

Tested on: PC3 mock tumor
Assay Overview: Small-animal PET, uptake in mock tumor
Condition Description: 24.5 (24–25) hours p.i., tracer only
Recorded Endpoint: SUVmax PC3 mock tumor
Please respond with just the number, no unit label.

Which SUVmax PC3 mock tumor is listed for Cc1c(COc2cc(OCc3cncc(C#N)c3)c(CN[C@@H](CS(=O)(=O)O)C(=O)NCCS(=O)(=O)O)cc2Cl)cccc1-c1cccc(OCc2cn(CCCN3CCN(C(=O)[C@H](CS(=O)(=O)O)NC(=O)CC[C@H](C(=O)O)N4CCN(CC(=O)O)CCN(CC(=O)O)CC4)CC3)nn2)c1C.[64Cu+2] [[^64Cu]Cu-1] ?
1.2

Which SUVmax PC3 mock tumor is listed for Cc1c(COc2cc(OCc3cncc(S(C)(=O)=O)c3)c(CN[C@@H](CS(=O)(=O)O)C(=O)NCCP(=O)(O)O)cc2Cl)cccc1-c1cccc(OCc2cn(CCCN3CCN(C(=O)CC[C@H](C(=O)O)N4CCN(CC(=O)O)CCN(CC(=O)O)CC4)CC3)nn2)c1C.[64Cu+2] [[^64Cu]Cu-4] ?
1.25
